Biological target: SHP2 (Homo sapiens, UniProt Q06124)
Sequence (Q06124 224-528): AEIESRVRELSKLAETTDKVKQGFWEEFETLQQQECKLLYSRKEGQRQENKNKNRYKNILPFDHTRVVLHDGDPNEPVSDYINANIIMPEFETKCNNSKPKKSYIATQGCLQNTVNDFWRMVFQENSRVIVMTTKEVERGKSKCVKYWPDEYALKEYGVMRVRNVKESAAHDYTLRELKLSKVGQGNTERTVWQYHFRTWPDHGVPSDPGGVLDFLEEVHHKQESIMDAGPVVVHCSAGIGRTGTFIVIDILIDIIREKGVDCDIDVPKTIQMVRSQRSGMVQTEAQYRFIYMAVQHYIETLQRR
Experiment: SHP2 phosphatase inhibition assay (pNPP)
Format: biochemical
Settings: pNPP at Km, pH 7.0, 25° C.; read-out: IC50 SHP2
pIC50: −log10 of the molar value.
property: pIC50

Need pIC50 of O=C(NC1=NN=C(c2ccc(Br)cc2)C1)C(=O)Nc1ccc(NC(=O)C(c2ccccc2)S(=O)(=O)O)cc1 (centres unmarked) , thanks.
6.15

Need pIC50 of Cc1ccc2nc(NC(=O)C(c3ccccc3)S(=O)(=O)O)sc2c1 (centres unmarked) , thanks.
< 3.70

Need pIC50 of Cc1c(Br)cc(NC(=O)C(c2ccccc2)S(=O)(=O)O)cc1Br (centres unmarked) , thanks.
< 4.00

Need pIC50 of O=C(Nc1nc2ccc(Cl)cc2s1)C(c1ccccc1)S(=O)(=O)O (centres unmarked) , thanks.
4.52

Need pIC50 of O=C(Nc1nc2ccccc2s1)C(c1ccccc1Cl)S(=O)(=O)O (centres unmarked) , thanks.
< 4.00

Need pIC50 of Cc1cc2nc(NC(=O)C(c3ccccc3)S(=O)(=O)O)sc2cc1C (centres unmarked) , thanks.
3.95

Need pIC50 of O=C(CS(=O)(=O)O)Nc1cnc2ccccc2c1 , thanks.
< 4.00

Need pIC50 of O=C(Nc1cccc(OCc2ccccc2)c1)C(=O)Nc1ccccc1NC(=O)C(c1ccccc1)S(=O)(=O)O (centres unmarked) , thanks.
< 4.30

====

Target: UniProt Q06124
Assay: SHP2 phosphatase inhibition assay (pNPP)
Format: biochemical
Settings: […]; SHP2; read-out: IC50 SHP2
property: pIC50
When answering, recall that pIC50 equals minus log10 of the concentration in mol/L, and write that number alone.

Need pIC50 of O=C(Nc1nc2cc(Cl)ccc2o1)C(c1ccc(-c2ccccc2)cc1)S(=O)(=O)O (stereo not shown) , thanks.
4.92

Need pIC50 of O=C(NNc1ccccc1)C(c1ccc(-c2ccccc2)cc1)S(=O)(=O)O (stereo not shown) , thanks.
4.66

Need pIC50 of O=C(O)C(c1ccc(-c2ccccc2)cc1)S(=O)(=O)O (stereo not shown) , thanks.
4.60

Need pIC50 of O=C(N1CCC(c2ccc(Cl)c(Cl)c2)CC1)C(Br)(c1ccccc1)S(=O)(=O)O (stereo not shown) , thanks.
4.64

====

Biological target: STEP (Homo sapiens, UniProt P54829)
Sequence (P54829 whole entry, species assumed): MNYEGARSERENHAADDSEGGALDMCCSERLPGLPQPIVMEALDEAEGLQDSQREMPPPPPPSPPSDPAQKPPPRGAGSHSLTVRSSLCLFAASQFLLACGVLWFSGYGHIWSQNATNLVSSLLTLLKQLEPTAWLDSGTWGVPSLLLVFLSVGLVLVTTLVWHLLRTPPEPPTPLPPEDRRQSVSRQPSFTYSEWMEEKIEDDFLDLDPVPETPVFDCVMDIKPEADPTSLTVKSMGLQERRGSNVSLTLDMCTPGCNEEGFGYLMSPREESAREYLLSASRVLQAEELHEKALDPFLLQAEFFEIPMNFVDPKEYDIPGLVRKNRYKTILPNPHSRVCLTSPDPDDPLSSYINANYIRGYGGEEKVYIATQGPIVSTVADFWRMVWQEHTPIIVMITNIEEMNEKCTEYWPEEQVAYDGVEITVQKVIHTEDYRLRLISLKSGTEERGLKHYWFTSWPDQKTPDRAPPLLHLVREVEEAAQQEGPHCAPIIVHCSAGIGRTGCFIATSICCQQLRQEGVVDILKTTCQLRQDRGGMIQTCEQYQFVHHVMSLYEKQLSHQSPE
Assay: PTP inhibition assay (pNPP)
Type: biochemical
Settings: pNPP at Km, pH 7.0, 25° C.; read-out: IC50 STEP
property: IC50

Value wanted: IC50 (STEP (Homo sapiens, UniProt P54829)) of entry O=C(Nc1cccc(OCc2ccccc2)c1)C(c1ccccc1)S(=O)(=O)O (stereo not drawn) [Compound L319M52]
> 200 µM

Value wanted: IC50 (STEP (Homo sapiens, UniProt P54829)) of entry O=C(C(c1ccccc1)S(=O)(=O)O)N1CCC(c2ccc(Cl)c(Cl)c2)CC1 (stereo not drawn) [Compound L319N47]
> 200 µM

Value wanted: IC50 (STEP (Homo sapiens, UniProt P54829)) of entry O=C(CS(=O)(=O)O)Nc1ccc2nc(C(F)(F)F)[nH]c2c1
> 100 µM

Value wanted: IC50 (STEP (Homo sapiens, UniProt P54829)) of entry O=C(NCc1ccc(NC(=O)C(c2ccccc2)S(=O)(=O)O)cc1)c1ccccc1-c1ccc(C(F)(F)F)cc1 (stereo not drawn) [Compound L319-05-A64]
> 100 µM

Value wanted: IC50 (STEP (Homo sapiens, UniProt P54829)) of entry O=C(Nc1cccc(OCc2ccccc2)c1)C(=O)Nc1ccccc1NC(=O)C(c1ccccc1)S(=O)(=O)O (stereo not drawn) [Compound L319-21-M52]
> 50 µM

Value wanted: IC50 (STEP (Homo sapiens, UniProt P54829)) of entry O=C(NCCNC(=O)C(c1ccccc1)S(=O)(=O)O)c1cccc(C(=O)c2ccccc2)c1 (stereo not drawn) [Compound L319-02-A60]
> 200 µM

Value wanted: IC50 (STEP (Homo sapiens, UniProt P54829)) of entry O=C(CS(=O)(=O)O)Nc1cnc2ccccc2c1
> 100 µM

Value wanted: IC50 (STEP (Homo sapiens, UniProt P54829)) of entry CCCCc1ccc(NC(=O)C(=O)Nc2ccccc2NC(=O)C(c2ccccc2)S(=O)(=O)O)cc1 (stereo not drawn) [Compound L319-21-M06]
> 50 µM

Value wanted: IC50 (STEP (Homo sapiens, UniProt P54829)) of entry O=C(Nc1nc2ccccc2s1)C(c1ccccc1)S(=O)(=O)O (stereo not drawn) [Compound L319N15]
> 200 µM

====

Biological target: LMWPTP (Homo sapiens)
Sequence (P24666 whole entry): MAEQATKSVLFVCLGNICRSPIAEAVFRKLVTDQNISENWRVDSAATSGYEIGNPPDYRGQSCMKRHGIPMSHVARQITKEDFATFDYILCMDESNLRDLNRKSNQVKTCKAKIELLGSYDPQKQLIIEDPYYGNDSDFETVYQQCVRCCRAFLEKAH
Test: PTP inhibition assay (pNPP)
Type: biochemical
Settings: pNPP at Km, pH 7.0, 25° C.
property: IC50 (µM)
// note: answer is a bare numeric in µM

Need IC50 of O=C(Nc1nc2c(Cl)cccc2s1)C(c1ccccc1)S(=O)(=O)O (stereo not shown) , thanks.
4.6

Need IC50 of O=C(Nc1nnc(-c2ccccc2)s1)C(c1ccccc1)S(=O)(=O)O (stereo not shown) , thanks.
10.2

Need IC50 of COc1ccc2nc(NC(=O)C(c3ccccc3)S(=O)(=O)O)sc2c1 (stereo not shown) , thanks.
5.8

Need IC50 of O=C(CS(=O)(=O)O)Nc1ccc2nc(C(F)(F)F)[nH]c2c1 , thanks.
1.86

Need IC50 of O=C(NCc1ccc(NC(=O)C(c2ccccc2)S(=O)(=O)O)cc1)c1ccccc1-c1ccc(C(F)(F)F)cc1 (stereo not shown) , thanks.
29

Need IC50 of O=C(O)Cc1csc(NC(=O)C(c2ccccc2)S(=O)(=O)O)n1 (stereo not shown) , thanks.
98.1

Need IC50 of CCOC(=O)c1ccc2nc(NC(=O)C(c3ccccc3)S(=O)(=O)O)sc2c1 (stereo not shown) , thanks.
3.03

Need IC50 of COc1cccc2sc(NC(=O)C(c3ccccc3)S(=O)(=O)O)nc12 (stereo not shown) , thanks.
7.6

Need IC50 of Cc1cccc2sc(NC(=O)C(c3ccccc3)S(=O)(=O)O)nc12 (stereo not shown) , thanks.
9.6

Need IC50 of O=C(C(c1ccccc1)S(=O)(=O)O)N1CCC(c2ccc(Cl)c(Cl)c2)CC1 (stereo not shown) , thanks.
115

Need IC50 of O=C(Nc1nc(-c2ccccc2)cs1)C(c1ccccc1)S(=O)(=O)O (stereo not shown) , thanks.
20

Need IC50 of O=C(CP(=O)(O)O)Nc1nc2ccccc2s1 , thanks.
30

Need IC50 of O=C(CS(=O)(=O)O)Nc1cnc2ccccc2c1 , thanks.
12

Need IC50 of Cc1ccc2nc(NC(=O)C(c3ccccc3)S(=O)(=O)O)sc2c1 (stereo not shown) , thanks.
8.2

Need IC50 of O=C(CS(=O)(=O)O)Nc1nc2ccc([N+](=O)[O-])cc2s1 , thanks.
0.3

Need IC50 of O=C(Nc1nc2ccc(F)cc2s1)C(c1ccccc1)S(=O)(=O)O (stereo not shown) , thanks.
4.2

Need IC50 of O=C(Nc1cnc2ccccc2c1)C(c1ccccc1)S(=O)(=O)O (stereo not shown) , thanks.
6.1

Need IC50 of Nc1ccc2nc(NC(=O)C(c3ccccc3)S(=O)(=O)O)sc2c1 (stereo not shown) , thanks.
14

Need IC50 of Cc1c(Br)cc(NC(=O)C(c2ccccc2)S(=O)(=O)O)cc1Br (stereo not shown) , thanks.
4.5

Need IC50 of Cc1cc2nc(NC(=O)C(c3ccccc3)S(=O)(=O)O)sc2cc1C (stereo not shown) , thanks.
4.8

Need IC50 of O=C(Nc1nc2ccc(O[N+](=O)[O-])cc2s1)C(c1ccccc1)S(=O)(=O)O (stereo not shown) , thanks.
2.1

====

Biological target: PTPγ (Homo sapiens)
Sequence (P23470 20-1445): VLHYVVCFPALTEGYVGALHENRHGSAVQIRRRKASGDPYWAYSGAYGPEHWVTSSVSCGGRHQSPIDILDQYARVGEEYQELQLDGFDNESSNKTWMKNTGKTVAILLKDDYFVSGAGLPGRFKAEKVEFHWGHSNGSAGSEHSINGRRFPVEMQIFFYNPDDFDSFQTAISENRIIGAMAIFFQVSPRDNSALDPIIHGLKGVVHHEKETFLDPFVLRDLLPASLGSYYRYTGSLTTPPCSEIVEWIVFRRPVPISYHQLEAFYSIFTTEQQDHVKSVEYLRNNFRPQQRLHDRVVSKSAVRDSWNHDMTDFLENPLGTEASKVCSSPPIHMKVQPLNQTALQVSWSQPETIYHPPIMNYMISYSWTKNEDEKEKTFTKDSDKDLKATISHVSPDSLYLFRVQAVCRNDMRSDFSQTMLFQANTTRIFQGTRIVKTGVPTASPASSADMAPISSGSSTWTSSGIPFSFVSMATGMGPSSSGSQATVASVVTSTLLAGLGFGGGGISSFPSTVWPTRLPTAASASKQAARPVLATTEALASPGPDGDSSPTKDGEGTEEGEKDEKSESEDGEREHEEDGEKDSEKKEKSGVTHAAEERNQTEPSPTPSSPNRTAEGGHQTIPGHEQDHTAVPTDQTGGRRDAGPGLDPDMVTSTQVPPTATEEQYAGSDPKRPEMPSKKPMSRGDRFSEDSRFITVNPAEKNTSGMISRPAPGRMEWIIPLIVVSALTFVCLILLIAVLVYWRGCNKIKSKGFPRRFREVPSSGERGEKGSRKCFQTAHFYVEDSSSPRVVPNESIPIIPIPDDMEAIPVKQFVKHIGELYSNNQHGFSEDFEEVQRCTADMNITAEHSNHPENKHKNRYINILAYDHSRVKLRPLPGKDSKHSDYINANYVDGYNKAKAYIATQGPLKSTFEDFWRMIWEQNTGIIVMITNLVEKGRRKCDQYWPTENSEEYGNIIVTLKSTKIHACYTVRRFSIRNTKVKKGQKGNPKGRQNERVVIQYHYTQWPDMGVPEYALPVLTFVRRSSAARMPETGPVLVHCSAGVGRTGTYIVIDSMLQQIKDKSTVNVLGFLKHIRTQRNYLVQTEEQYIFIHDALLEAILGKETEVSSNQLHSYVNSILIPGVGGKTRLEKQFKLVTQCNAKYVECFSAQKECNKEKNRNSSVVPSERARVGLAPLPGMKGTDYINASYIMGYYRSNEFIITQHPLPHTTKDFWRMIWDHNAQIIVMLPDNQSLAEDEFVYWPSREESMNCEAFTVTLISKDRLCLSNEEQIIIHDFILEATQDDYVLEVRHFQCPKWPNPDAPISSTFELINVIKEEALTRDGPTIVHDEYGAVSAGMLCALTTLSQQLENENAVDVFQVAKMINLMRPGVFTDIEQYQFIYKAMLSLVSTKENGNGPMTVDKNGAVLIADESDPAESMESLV
Test: PTP inhibition assay (pNPP)
Assay type: biochemical
pIC50: −log10 of the molar value.
property: pIC50

Value wanted: pIC50 (PTPγ (Homo sapiens)) of entry O=C(Nc1ccc2nc(C(F)(F)F)[nH]c2c1)C(c1ccccc1)S(=O)(=O)O (stereo not shown) [Compound L319M54]
< 3.70

Value wanted: pIC50 (PTPγ (Homo sapiens)) of entry O=C(C(c1ccccc1)S(=O)(=O)O)N1CCC(Cc2ccccc2)CC1 (stereo not shown) [Compound L319N46]
< 3.70

Value wanted: pIC50 (PTPγ (Homo sapiens)) of entry O=C(CS(=O)(=O)O)Nc1nc2ccccc2s1 [Compound L335N15]
< 4.00

Value wanted: pIC50 (PTPγ (Homo sapiens)) of entry Cc1c(Br)cc(NC(=O)CS(=O)(=O)O)cc1Br
< 4.00

Value wanted: pIC50 (PTPγ (Homo sapiens)) of entry O=C(CS(=O)(=O)O)Nc1ccc2nc(C(F)(F)F)[nH]c2c1
< 4.00

Value wanted: pIC50 (PTPγ (Homo sapiens)) of entry O=C(CS(=O)(=O)O)Nc1nc2ccc([N+](=O)[O-])cc2s1 [Compound L335N15-07]
< 4.00

Value wanted: pIC50 (PTPγ (Homo sapiens)) of entry O=C(Nc1ccc(N2CCOCC2)cc1)C(c1ccccc1)S(=O)(=O)O (stereo not shown) [Compound L319M68]
< 3.70

Value wanted: pIC50 (PTPγ (Homo sapiens)) of entry O=C(CS(=O)(=O)O)Nc1cnc2ccccc2c1
< 4.00

Value wanted: pIC50 (PTPγ (Homo sapiens)) of entry O=C(C(c1ccccc1)S(=O)(=O)O)N1CCCC2CCCCC21 (stereo not shown) [Compound L319N53]
< 3.70

Value wanted: pIC50 (PTPγ (Homo sapiens)) of entry O=C(Nc1nc2ccccc2s1)C(c1ccccc1)S(=O)(=O)O (stereo not shown) [Compound L319N15]
< 3.70

All figures here come from patent US10494332B2.
